- Test: MTT cytotoxicity assay, 72 h drug exposure, AGS1-NSCs
- Assay type: cell-based, human
- Reported Conditions: human; AGS1-NSC, as restated in the discussion; read-out: viability after 72 h of treatment
- Description: For NSCs differentiation, iPSCs colonies were seeded in StemMACS iPS-Brew XF medium on diluted Geltrex coated 6-wells plates at a density of 3 × 10^5 cells/well and allowed to recover for 24 h at 37°C 5% CO2, 20% O2. […] The cytotoxic effect of drugs on iPSCs and NSCs was also determined by MTT assay. iPSCs and NSCs were cultured on a Geltrex coated 96-well plate at different cell densities according to their different cell growth rate, to obtain similar cell densities at 72 h. […]

Entry Smiles	viability at 72 h (%)
Nc1nc2nc[nH]c2c(=S)[nH]1	70

---

- Test: MTT cytotoxicity assay, 72 h drug exposure, AGS1-NSCs
- Format: cell-based, human
- Reported Conditions: human; AGS1-NSCs at 20 μM, MTT, 72 h
Measurement Name: viability at 72 h, 20 µM (%)

Compound	Numeric Readout
Nc1nc2nc[nH]c2c(=S)[nH]1 [thioguanine]	74

---

- Test system: AGS1-NSC
- Test: MTT cytotoxicity assay, 72 h drug exposure, AGS1-NSCs
- Type: cell-based, human
- Reported Conditions: Homo sapiens; MTT, 72 h, AGS1-NSC
pIC50: −log10 of the molar value.
Measurement Name: pIC50

Entry Smiles	Numeric Readout
C1=C/COCc2cc(ccc2OCCN2CCCC2)Nc2nccc(n2)-c2cccc(c2)COC/1	6.12

---

- Test: MTT cytotoxicity assay, 72 h drug exposure, AGS2-NSCs
- Assay type: cell-based, human
- Reported Conditions: human, AGS2-NSC at the highest concentration tested
- Description: For NSCs differentiation, iPSCs colonies were seeded in StemMACS iPS-Brew XF medium on diluted Geltrex coated 6-wells plates at a density of 3 × 10^5 cells/well and allowed to recover for 24 h at 37°C 5% CO2, 20% O2. […] The cytotoxic effect of drugs on iPSCs and NSCs was also determined by MTT assay. iPSCs and NSCs were cultured on a Geltrex coated 96-well plate at different cell densities according to their different cell growth rate, to obtain similar cell densities at 72 h. […]

Entry Smiles	viability at 72 h
Sc1ncnc2nc[nH]c12	~80%

---

- Test system: AGS7-iPSC
- Test: MTT cytotoxicity assay, 72 h drug exposure, AGS7-iPSCs
- Assay type: cell-based, human
- Reported Conditions: Homo sapiens, 72 h, AGS7-iPSC
pIC50: −log10 of the molar value.
Measurement Name: pIC50

Entry Smiles	Target Under Test	Numeric Readout
C1=C/COCc2cc(ccc2OCCN2CCCC2)Nc2nccc(n2)-c2cccc(c2)COC/1	AGS7-iPSC	6.46
